target: UniProtKB Q9NP59; experiment: ferroportin internalization assay (inhibition of hepcidin-induced internalization of Fpn); conditions: MDCK-FPN-HaloTag cells, 100 nM hepcidin, overnight incubation; concentration range from 0.04 to 40 μM
PARAMETER: IC50 (nM)
Give bare numbers, in nM.

Parameters: items (list). Returns: IC50 for each item.
1. O=S1(=O)Nc2c(ccc3cccnc23)-c2ccc(C(F)(F)F)cc21
2. Cc1ccc(C2c3ccc4cccnc4c3NS(=O)(=O)N2C)cc1 (stereo not drawn)
3. CN1Cc2ccc3cccnc3c2NS1(=O)=O

Result:
2340
600
6500

* * *

molecular target: human ferroportin (Homo sapiens, UniProt Q9NP59); assay: ferroportin internalization assay (inhibition of hepcidin-induced internalization of Fpn); conditions: MDCK-FPN-HaloTag cells, 100 nM hepcidin, overnight incubation; concentration range from 0.04 to 40 μM
Sequence (Q9NP59 whole entry): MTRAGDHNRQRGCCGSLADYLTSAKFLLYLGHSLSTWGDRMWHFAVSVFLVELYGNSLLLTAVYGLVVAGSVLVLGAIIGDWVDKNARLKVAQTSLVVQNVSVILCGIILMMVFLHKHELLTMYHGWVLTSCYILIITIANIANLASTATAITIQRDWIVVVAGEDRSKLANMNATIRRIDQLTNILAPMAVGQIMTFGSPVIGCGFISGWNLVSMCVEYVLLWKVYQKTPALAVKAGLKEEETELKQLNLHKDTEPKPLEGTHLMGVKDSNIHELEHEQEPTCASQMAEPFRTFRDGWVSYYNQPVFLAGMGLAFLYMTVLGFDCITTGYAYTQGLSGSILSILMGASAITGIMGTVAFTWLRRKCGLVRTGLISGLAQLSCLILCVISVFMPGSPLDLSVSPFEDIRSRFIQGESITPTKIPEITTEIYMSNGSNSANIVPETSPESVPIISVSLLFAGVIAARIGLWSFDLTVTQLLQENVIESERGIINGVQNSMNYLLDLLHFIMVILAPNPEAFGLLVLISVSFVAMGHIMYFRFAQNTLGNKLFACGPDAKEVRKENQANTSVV
PARAMETER: IC50 (µM)
Answers are plain numbers, in µM.

Use the examples below as a reference point.
Record `Cc1cc2c(cc1F)-c1ccc3cccnc3c1NS2(=O)=O` , field IC50: 3.24

Record `N#Cc1ccc(S(=O)(=O)Nc2cc(OC(F)(F)F)cc3cccnc23)cn1` , field IC50: 2.11

Record CN1C(c2ccc(F)cc2)c2cc(Cl)c3cccnc3c2NS1(=O)=O (centres unmarked) , field IC50: 12.5

Record `O=S1(=O)Nc2c(ccc3cccnc23)-c2cc(F)ccc21` , field IC50: 1.56

Parameters: items (list). Returns: IC50 for each item.
1. COC(=O)c1cccc(S(=O)(=O)Nc2cccc3cccnc23)c1
2. O=S1(=O)NCc2ccc3cccnc3c2N1
3. O=S1(=O)Nc2c(cc(Cl)c3cccnc23)-c2cc(C(F)(F)F)ccc21
4. COc1ccc2c(c1)S(=O)(=O)Nc1c-2ccc2cccnc12
5. O=S1(=O)Nc2c(cc(Cl)c3cccnc23)-c2ccccc21
6. O=S(=O)(Nc1cc(F)cc2cccnc12)c1ccccc1
7. Cc1cccc2c1S(=O)(=O)Nc1c-2ccc2cccnc12
8. O=S(=O)(Nc1cccc2cccnc12)c1cccc(Cl)c1F

Result:
[1.42, 39.5, 6.25, 2.11, 0.32, 0.78, 3.88, 1.71]

Parameters: items (list). Returns: IC50 for each item.
1. O=S1(=O)Nc2c(ccc3c(-n4cccn4)ccnc23)-c2ccccc21
2. COc1cc(NS(=O)(=O)c2ccccc2)c2ncccc2c1
3. O=S(=O)(Nc1ccc(Cl)c2cccnc12)c1ccc(Cl)cc1F
4. O=S1(=O)Nc2c(cc(N3CCOCC3)c3cccnc23)-c2ccccc21
5. O=S1(=O)Nc2c(ccc3c(Cl)ccnc23)-c2ccccc21
6. Nc1cc(C(F)(F)F)ccc1S(=O)(=O)Nc1cccc2cccnc12
7. Nc1ccccc1S(=O)(=O)Nc1cccc2cccnc12
8. O=S1(=O)Nc2c(c(F)cc3cccnc23)-c2ccccc21

Result:
1. 3.53
2. 6.4
3. 1.38
4. 1.14
5. 12.5
6. 0.76
7. 20.8
8. 3.57
